Cited source: patent US9458463B2

Test system: C2C12 cells
PROTOCOL_SUMMARY: Cell viability assay (CellTiter-Glo / automated cell number) in C2C12
Type: cell-based
CONDITIONS_USED: Mus musculus, read-out: Inhibition of cell viability IC50
QUANTITY_MEASURED: IC50

Known value: C2C12 cells IC50 of the compound COc1cccc([C@@H](C)NC(=O)c2ccc3c(c2)/C(=C/Nc2ccc(CN4CCCCC4)cc2)C(=O)N3)c1 [II.79] equals > 10 µM

Reading of IC50 for CC[C@@H](NC(=O)c1ccc2c(c1)/C(=C/c1[nH]c(C)c(CCC(=O)NCCN(CC)CC)c1C)C(=O)N2)c1ccccc1 [II.131] with C2C12 cells: > 10 µM

Case C[C@@H](NC(=O)c1ccc2c(c1)/C(=C/Nc1ccc(CN3CCCCC3)cc1)C(=O)N2)c1ccccc1 [II.78] , C2C12 cells, IC50 recorded as > 10 µM

---

Assignment: determine reported IC50 for the given molecules.
Test system: C2C12 cells
PROTOCOL_SUMMARY: Cell viability assay (CellTiter-Glo / automated cell number) in C2C12
Assay type: cell-based
CONDITIONS_USED: Mus musculus, read-out: Inhibition of cell viability IC50
Procedure: Luminescent cell viability assay. For the detection of cell viability, the CellTiter-Glo® Luminescent Cell Viability Assay was used. This test is based on a luciferase reaction to measure the amount of ATP in cells. […] Three times 50 μl cell lysate was transferred into a white 96 well plate to eliminate stray light, and the bioluminescence was measured. In a 96 well dish 10000 cells per well (100 μl) were seed and treated for 72 h. […] IC50 values have been calculated accordingly.

Documented IC50 of COC(=O)[C@@H](Cc1ccccc1)NC(=O)c1c(C)[nH]c(/C=C2\C(=O)Nc3ccc(C(=O)O)cc32)c1C [II.140] : > 10 µM

IC50 recorded for this molecule, CCC(NC(=O)c1ccc2c(c1)/C(=C/c1[nH]c(C)c(CCC(=O)NCCN(CC)CC)c1C)C(=O)N2)c1cccc(Cl)c1 (stereo not shown) [II.135] , is > 10 µM

IC50 in this record for CC[C@@H](NC(=O)c1ccc2c(c1)/C(=C/c1[nH]c(C)c(C(=O)N3CCC[C@@H]3CN3CCCC3)c1C)C(=O)N2)c1ccccc1 [II.48] : > 10 µM

IC50 recorded for this molecule, CCOC(=O)[C@H](C)NC(=O)c1c(C)[nH]c(/C=C2\C(=O)Nc3ccc(C(=O)O)cc32)c1C [II.136] , is > 10 µM

Input Cc1[nH]c(/C=C2\C(=O)Nc3ccc(C(=O)N[C@@H]4CCc5ccccc54)cc32)c(C)c1C(=O)N1CCC[C@@H]1CN1CCCC1 [II.30] . Output IC50: > 10 µM

The molecule identified as COc1ccc([C@@H](C)NC(=O)c2ccc3c(c2)/C(=C/Nc2ccc(CN4CCCCC4)cc2)C(=O)N3)cc1 [II.70] registered its IC50 at > 10 µM

Notebook: CC[C@@H](NC(=O)c1ccc2c(c1)/C(=C/c1[nH]c(C)c(C(=O)N3CCC(N4CCN(C)CC4)CC3)c1C)C(=O)N2)c1ccccc1 [II.53] , IC50 read as > 10 µM

Entry under test: COC(=O)[C@H](COC(C)(C)C)NC(=O)c1c(C)[nH]c(/C=C2\C(=O)Nc3ccc(C(=O)O)cc32)c1C [II.141] . Its IC50 was > 10 µM

Briefly, IC50 measured for Cc1[nH]c(/C=C2\C(=O)Nc3ccc(C(=O)O)cc32)c(C)c1C(=O)O [II.139] : > 10 µM

Recorded IC50 (molecule C[C@@H](NC(=O)c1ccc2c(c1)/C(=C/Nc1ccc(CN3CCCCC3)cc1)C(=O)N2)c1cccc(Cl)c1 [II.80] ): > 10 µM

Sample CC[C@H](NC(=O)c1ccc2c(c1)/C(=C/c1[nH]c(C)c(C(=O)N3CCC[C@H]3CN3CCCC3)c1C)C(=O)N2)c1ccccc1 [II.47] ; IC50 observed: > 10 µM

// recorded IC50 for Cc1ccc([C@@H](C)NC(=O)c2ccc3c(c2)/C(=C/Nc2ccc(CN4CCCCC4)cc2)C(=O)N3)cc1 [II.72] : > 10 µM

Record CC[C@@H](NC(=O)c1ccc2c(c1)/C(=C/c1[nH]c(C)c(CCC(=O)O)c1C)C(=O)N2)c1ccccc1 [II.130] , field IC50: > 10 µM
